Assay: qHTS RealTime-Glo MT Cell Viability Assay in HEK293 cells - 16 hour (AID 1224872); further: nearly all actives have a fitted effect of over 50% in size; further: potency means the concentration at half of the fitted maximal effect
Conditions: RealTime-Glo luminescence; series mostly up to 76.8 µM
Inconclusive results are not listed. The source made the active and inactive calls. The call rests on the fitted dose curve; in most records, active means well fitted cell-killing curve with a large enough effect in the repeat runs; inconclusive means weak or mixed curves, or effect the other way; inactive means flat fitted curve, though single readings scatter.
READOUT KIND: Potency

Field: example entries. Status: answers known.
CC[C@H](c1ccc(O)cc1)[C@@H](CC)c1ccc(O)cc1    inactive
CCCCCCCCCCCCc1ccc(O)cc1    38.9 µM (active)
CC/C(=C(\c1ccc(O)cc1)c1ccc(OCCN(C)C)cc1)c1ccccc1    24.6 µM (active)
Cc1cccc(CN2CCN(C(c3ccccc3)c3ccc(Cl)cc3)CC2)c1 (configuration not stated)    inactive
CCCCC(CC)COC(=O)c1ccccc1C(=O)O (configuration not stated)    inactive
C[C@H]1[C@H]2CC[C@H]3[C@@H]4CC=C5C[C@@H](N(C)C)CC[C@]5(C)[C@H]4CC[C@]23CN1C    inactive

Measured Potency, `O=c1c(-c2ccccc2)c1-c1ccccc1` : 15.1 µM (active)

Measured Potency, `C[n+]1ccn(Cc2ccccc2)c1` : inactive

Measured Potency, `CCCCCCCC/C=C\CCCCCCCCOCCO` : 3.19 µM (active)

Measured Potency, `S=c1[nH]c2ccccc2s1` : inactive

Measured Potency, `Cc1cccc(S(=O)(=O)O)c1C` : inactive

Measured Potency, `N=C1N=C(N)c2cc3ccccc3cc21` : 27.5 µM (active)
